test system: P. gingivalis DPP-7; assay type: biochemical, Porphyromonas gingivalis
reported.endpoint: inactivation of / influence on DPP-7 activity (in words)

# entry.smiles, result
rows = [
    ("O=c1oc(Cl)c(Cl)c2ccccc12", "inactivated"),
    ("O=C(O)CI", "not"),
    ("Cl.NCCc1ccc(S(=O)(=O)F)cc1", "inactivated"),
]
